Measured TGI of individual entries
# Test system: OVCAR-8 ovarian
# assay: NCI tumour cell line growth inhibition, 48 h

{"molecule": "COc1cccc(NC(=O)/C(Cc2nc3ccccc3nc2C)=N/NC(=O)C[n+]2ccccc2)c1", "TGI": "> 100 µM"}
{"molecule": "CCC(C#N)NCc1cccc(CNC(C#N)CC)c1 (stereo unspecified)", "TGI": "> 100 µM"}
{"molecule": "CC(=O)Nc1ccc(C2SCc3nc4ccccc4n32)cc1 (stereo unspecified)", "TGI": "> 100 µM"}
{"molecule": "CO/N=C(\\C)CCC#Cc1ccccc1C(=O)OC", "TGI": "> 10 µM"}
{"molecule": "CCC(=O)Nc1ccc(N2C(=O)C(Cl)C2c2ccc(SC)cc2)cc1 (stereo unspecified)", "TGI": "> 100 µM"}
{"molecule": "NC(N)=Nc1ccc(CC(N)C(=O)O)cc1 (stereo unspecified)", "TGI": "> 12.5 µM"}
